Data origin: ChEMBL document CHEMBL1135479

Protocol details: Fractional inhibitory concentration (FIC) tested against Peruvian PC49 cells, isolate from South America
Type: functional, Plasmodium falciparum
Here, each record is paired with measured FIC data.
// print number alone

Example results:
INSERT INTO assay_data (input_smiles, reported_value) VALUES
  ('c1ccc2c(c1)CCc1ccccc1N2CCCCCN1CCCC1', 0.59),
  ('c1ccc2c(c1)Sc1ccccc1N2CCCCN1CCCC1', 0.5),
  ('C1=Cc2ccccc2N(CCCCN2CCCC2)c2ccccc21', 0.74),
  ('CN1CCN(CCCCN2c3ccccc3Sc3ccccc32)CC1', 0.98),
  ('CCN(CC)CCCCN1c2ccccc2CCc2ccccc21', 0.57);

Now let's try a different one.
Name the recorded FIC of the item CN(C)CCCCN1c2ccccc2CCc2ccccc21 in your answer.
0.62
